Molecular target: NR1/NR2B (Homo sapiens (Human), UniProt Q05586+Q13224)
Sequence (Q13224 27-1484, other chains not shown): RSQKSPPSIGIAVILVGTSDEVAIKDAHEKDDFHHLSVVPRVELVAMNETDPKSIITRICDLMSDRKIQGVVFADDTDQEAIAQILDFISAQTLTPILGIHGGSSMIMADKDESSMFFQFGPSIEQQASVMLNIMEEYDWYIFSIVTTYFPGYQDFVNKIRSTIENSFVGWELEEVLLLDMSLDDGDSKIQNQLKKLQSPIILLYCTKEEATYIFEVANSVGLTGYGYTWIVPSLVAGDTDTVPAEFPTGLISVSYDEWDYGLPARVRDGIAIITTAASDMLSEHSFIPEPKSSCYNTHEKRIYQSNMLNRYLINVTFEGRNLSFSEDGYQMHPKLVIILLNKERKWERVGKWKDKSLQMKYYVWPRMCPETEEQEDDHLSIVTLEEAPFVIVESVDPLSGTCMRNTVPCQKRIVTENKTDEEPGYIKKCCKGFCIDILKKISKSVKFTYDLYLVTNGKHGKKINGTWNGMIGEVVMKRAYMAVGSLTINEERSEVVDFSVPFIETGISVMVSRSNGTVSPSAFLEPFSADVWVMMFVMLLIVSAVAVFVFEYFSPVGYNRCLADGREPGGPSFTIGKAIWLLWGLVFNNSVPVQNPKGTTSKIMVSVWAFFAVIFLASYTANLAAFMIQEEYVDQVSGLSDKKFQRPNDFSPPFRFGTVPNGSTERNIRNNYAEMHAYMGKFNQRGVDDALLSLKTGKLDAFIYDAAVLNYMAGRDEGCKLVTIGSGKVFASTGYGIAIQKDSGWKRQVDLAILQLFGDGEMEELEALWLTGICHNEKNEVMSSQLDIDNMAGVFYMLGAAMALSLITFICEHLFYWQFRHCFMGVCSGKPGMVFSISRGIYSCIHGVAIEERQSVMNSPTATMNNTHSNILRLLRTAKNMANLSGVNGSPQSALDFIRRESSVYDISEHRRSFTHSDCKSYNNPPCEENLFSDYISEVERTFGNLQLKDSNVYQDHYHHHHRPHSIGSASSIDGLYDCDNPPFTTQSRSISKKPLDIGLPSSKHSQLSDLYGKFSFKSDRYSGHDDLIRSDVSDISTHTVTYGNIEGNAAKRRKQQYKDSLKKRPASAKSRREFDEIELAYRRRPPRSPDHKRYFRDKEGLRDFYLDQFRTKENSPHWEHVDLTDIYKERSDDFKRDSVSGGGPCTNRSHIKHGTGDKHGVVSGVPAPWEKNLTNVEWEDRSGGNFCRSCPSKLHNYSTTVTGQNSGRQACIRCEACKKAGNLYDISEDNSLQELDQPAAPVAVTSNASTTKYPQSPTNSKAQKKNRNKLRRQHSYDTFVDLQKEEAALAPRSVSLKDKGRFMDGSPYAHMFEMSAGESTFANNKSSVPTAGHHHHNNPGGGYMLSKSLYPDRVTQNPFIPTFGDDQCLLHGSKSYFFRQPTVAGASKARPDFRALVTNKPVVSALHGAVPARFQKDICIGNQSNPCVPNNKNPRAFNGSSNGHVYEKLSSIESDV
Test: Cell assay: FDSS Ca2+ influx inhibition in HEK293 cells expressing NR1/NR2B;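 note: Fluo-8 Ca2+ signal read on Hamamatsu FDSS 6000 after glutamate, glycine and Ca2+ challenge following 10 min compound preincubation, end/baseline fluorescence ratio compared with MK801 control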
Conditions: Binned Activity, HEK293 cells expressing NR1/NR2B, Ca2+ influx; binned NR2B NAM IC50
pIC50: −log10 of the molar value.
Assignment: determine reported pIC50 for the given molecules.

Q: Given O=C(CN1C[C@@H]2C[C@@](O)(Cc3ccc(Cl)cc3)C[C@@H]2C1)c1ccc(O)cn1 , state its recorded pIC50.
A: 6.00 to 7.00

Q: # input molecule: CC(=O)Nc1ccc(C(=O)CN2C[C@@H]3C[C@@](O)(Cc4ccccc4)C[C@@H]3C2)cn1 ; wanted: its pIC50
A: < 5.00

Q: Quick check: pIC50 of COc1ccc(NC(=O)N2C[C@@H]3C[C@@](O)(c4ccccc4)C[C@@H]3C2)cc1 ?
A: < 5.00

Q: Would you kindly share the measured pIC50 for Cc1ccccc1C[C@]1(O)C[C@H]2CN(CC(=O)c3ccc(O)cc3)C[C@H]2C1 ?
A: 6.00 to 7.00

Q: Item Oc1ccc(C(O)CN2C[C@H]3CN(Cc4ccccc4)C[C@H]3C2)cc1F (mixture of isomers) has what recorded pIC50?
A: > 7.00

Q: Query (molecule): Cc1ccccc1[C@]1(O)C[C@H]2CN(c3cccc(C(F)(F)F)n3)C[C@H]2C1 ; field requested: pIC50
A: < 5.00

Q: So what's the measured pIC50 for this one? COc1cccc([C@]2(O)C[C@H]3CN(C(=O)Nc4cc(C)ccc4OC)C[C@H]3C2)c1
A: < 5.00
